Reference source for all entries: ChEMBL document CHEMBL1201862

Tested on: BT-549
ASSAY_DETAILS: NCI tumour cell line growth inhibition, 48 h
Activity calls are given as the source filed them. Rule as the data show it: active = GI50 up to about 1.1 µM and inactive = higher.
Thanks in advance; please answer with one of these: TRUE (active), FALSE (inactive)

Solved cases (5 shown):
c1ccc(NN=C(c2ccccn2)c2ccccn2)nc1 | FALSE
C/C(=N\NC(=S)N1CCCCC1)c1nc2cccnc2[nH]1 | FALSE
O=[N+]([O-])c1cccc2nc3ccccc3c(NCCCN3CCCCC3)c12 | TRUE
O=c1c(C(c2ccc3ccccc3c2)c2c(O)oc3cc(O)ccc3c2=O)c(O)oc2cc(O)ccc12 | FALSE
COc1ccc2c(c1)-c1nc(=S)n(CCN(C)C)c3ccc([N+](=O)[O-])c(c13)N2 | FALSE

Just curious, what result did O=C1CC(=O)NC(NN2C(=O)/C(=C/c3ccc(Cl)cc3)N=C2c2ccccc2)=N1 get here?
FALSE

Just curious, what result did O=c1[nH]nc(NNc2ccccc2)c2nnn(C3CCCCC3)c12 get here?
FALSE

Just curious, what result did CCCCCCCCCCCCCCCCOCC(CCl)OP(=O)(O)OP(=O)(O)OCC1OC(n2ccc(N)nc2=O)C(O)C1O (configuration not stated) get here?
FALSE

Just curious, what result did COc1ccc(COC(=O)NNC(=O)C2CSC(c3ccccc3)N2C(C)=O)cc1 (configuration not stated) get here?
FALSE

Just curious, what result did CN(C(=O)OC(C)(C)C)[C@H]1CCCC[C@H]1N1CCCC1 get here?
FALSE

Just curious, what result did COc1ccc(Oc2nc(C#CC(C)(C)O)nc(Oc3ccc(OC)cc3)n2)cc1 get here?
FALSE

Just curious, what result did O=c1n(CC2CO2)c(=O)n(CC2CO2)c(=O)n1CC1CO1 (configuration not stated) get here?
FALSE
